# ASSAYED_TARGET: HA1 adenosine receptor (Homo sapiens, UniProt P30542)
# Sequence (P30542 whole entry): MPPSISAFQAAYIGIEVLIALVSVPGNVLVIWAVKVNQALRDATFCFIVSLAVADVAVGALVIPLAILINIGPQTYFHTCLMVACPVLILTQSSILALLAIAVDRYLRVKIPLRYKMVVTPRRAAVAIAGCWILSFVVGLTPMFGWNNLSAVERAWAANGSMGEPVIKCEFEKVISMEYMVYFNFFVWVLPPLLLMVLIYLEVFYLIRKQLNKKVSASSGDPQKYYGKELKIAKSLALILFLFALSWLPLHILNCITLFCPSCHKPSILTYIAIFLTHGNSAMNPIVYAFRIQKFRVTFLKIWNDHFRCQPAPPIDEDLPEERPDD
# ASSAY_DETAILS: Human adenosine A1 receptor affinity (Ki hA1)
# Assay type: binding
# RUN_PARAMETERS: affinity to human adenosine A1 receptor
Response field label takes T when Ki is strictly below 300 nM and F in all other cases.

The examples below pair each entry with its known result.
molecule="Cc1ccsc1-c1nc2cc(C(=O)NC(C)c3ccccc3)cc(N)n2n1 (stereo not shown) [Example 190]" assayed_target="HA1 adenosine receptor (Homo sapiens, UniProt P30542)" category_label=T
molecule="CCCCNC(=O)c1cc(N)n2nc(-c3cccn3C)nc2c1 [Example 178]" assayed_target="HA1 adenosine receptor (Homo sapiens, UniProt P30542)" category_label=F
molecule="CCCCNC(=O)c1cc(N)n2nc(-c3cccnc3)nc2c1 [Example 80]" assayed_target="HA1 adenosine receptor (Homo sapiens, UniProt P30542)" category_label=F
molecule="C=CCN(CC=C)C(=O)c1cc(N)n2nc(-c3nccs3)nc2c1 [Example 290]" assayed_target="HA1 adenosine receptor (Homo sapiens, UniProt P30542)" category_label=F
molecule="Nc1cc(C(=O)N2CCCC2)cc2nc(-c3ccco3)nn12 [Example 106]" assayed_target="HA1 adenosine receptor (Homo sapiens, UniProt P30542)" category_label=F
molecule="Cn1cccc1-c1nc2cc(C(=O)NC3CCCCC3)cc(N)n2n1 [Example 179]" assayed_target="HA1 adenosine receptor (Homo sapiens, UniProt P30542)" category_label=F
molecule="COc1ccc(-c2nc3cc(C(=O)NC4CCCCC4)cc(N)n3n2)s1 [Example 64]" assayed_target="HA1 adenosine receptor (Homo sapiens, UniProt P30542)" category_label=T
molecule="COc1ccccc1CNC(=O)c1cc(N)n2nc(-c3ccc(Cl)o3)nc2c1 [Example 246]" assayed_target="HA1 adenosine receptor (Homo sapiens, UniProt P30542)" category_label=T
molecule="Cc1ccc(-c2nc3cc(C(=O)NCc4ccc(F)cc4)cc(N)n3n2)o1 [Example 213]" assayed_target="HA1 adenosine receptor (Homo sapiens, UniProt P30542)" category_label=F
molecule="COc1ccc(-c2nc3cc(C(=O)N(CCc4ccccc4)Cc4ccccc4)cc(N)n3n2)s1 [Example 75]" assayed_target="HA1 adenosine receptor (Homo sapiens, UniProt P30542)" category_label=T

I wonder whether CCN(Cc1ccccc1)C(=O)c1cc(N)n2nc(-c3ccc(Br)o3)nc2c1 [Example 307] has Ki below 300 nM. Can you tell?
T

I wonder whether Cc1ccc(-c2nc3cc(C(=O)N4CCOCC4)cc(N)n3n2)o1 [Example 139] has Ki below 300 nM. Can you tell?
F

I wonder whether CC(C)N(C)C(=O)c1cc(N)n2nc(-c3nccs3)nc2c1 [Example 285] has Ki below 300 nM. Can you tell?
F
